All figures here come from PubChem BioAssay (EPA / NIEHS).

read-out: Monokine induced gamma interferon (MIG), CXCL9 (gene 4283); test: BSK_BE3C_MIG: BioMAP Diversity Plus: BE3C Assay for Monokine induced gamma interferon (MIG) Biomarker Activity (AID 2283035); conditions: primary human bronchial epithelial cells; actives raise or lower the signal
Activity calls are given as the source filed them. The calls were made as follows: active = hit-call score of the fitted dose curve at least 0.9, where 1 is the maximum; inactive = score below 0.9.
Bench note: report the call from t = active, f = inactive

c1nc[nH]n1 ... f
OCC1CO1 (stereo unspecified) ... f
O=C(O)C=CC(F)(C(F)(F)F)C(F)(F)F ... f
CC(C)(C)OOC(C)(C)C ... f
C=CC(=O)OCC(CC)(COC(=O)C=C)COC(=O)C=C ... t

Let's switch to this compound now.
**Query** Could you check what this test reported for COP(=O)(CCC(=O)NCO)OC ?
**Result** f
